# Tested on: CEM cells
# test-protocol: Toxicity to CEM cells
# Format: cell-based, human
# assay-conditions: Table 6; mean of two or more repeat experiments

- compound: "COC(=O)[C@@H](C)NP(=O)(OCC1C=CC(n2cc(C)c(=O)[nH]c2=O)O1)Oc1ccccc1 (stereo partly drawn) [Compound 932]"
  CC50: "> 250 µM"
- compound: "Cc1cn(C2C=CC(COP(=O)(O)NC(C)C(=O)OCc3ccccc3)O2)c(=O)[nH]c1=O (stereo not drawn) [Compound 1137]"
  CC50: "≥ 250 µM"
- compound: "Cc1cn([C@H]2C=C[C@@H](COP(=O)(O)NCC(=O)O)O2)c(=O)[nH]c1=O [Compound 1163]"
  CC50: "> 250 µM"
- compound: "CSCC[C@H](NP(=O)(O)OC[C@@H]1C=C[C@H](n2cc(C)c(=O)[nH]c2=O)O1)C(=O)O [Compound 1156]"
  CC50: "> 250 µM"
- compound: "COC(=O)C(NP(=O)(OCC1C=CC(n2cc(C)c(=O)[nH]c2=O)O1)Oc1ccccc1)C(C)C (stereo not drawn) [Compound 865]"
  CC50: "> 250 µM"
- compound: "CCOC(=O)CCNP(=O)(OCC1C=CC(n2cc(C)c(=O)[nH]c2=O)O1)Oc1ccccc1 (stereo not drawn) [Compound 950]"
  CC50: "> 250 µM"
- compound: "Cc1cn(C2C=CC(COP(=O)(O)O)O2)c(=O)[nH]c1=O (stereo not drawn) [Compound 1131]"
  CC50: "≥ 250 µM"
- compound: "COC(=O)C(CCSC)NP(=O)(OCC1C=CC(n2cc(C)c(=O)[nH]c2=O)O1)Oc1ccccc1 (stereo not drawn) [Compound 867]"
  CC50: "≥ 250 µM"
- compound: "Cc1cn(C2C=CC(COP(=O)(Oc3ccccc3)Oc3ccccc3)O2)c(=O)[nH]c1=O (stereo not drawn) [Compound 880]"
  CC50: "≥ 250 µM"

---

# Tested on: HIV-1
# test-protocol: microbe, parasite or virus in culture
# assay-conditions: read-out: HIV1 CEM: EC50 for inhibition of HIV-1 in CEM cells; Table 6; mean of two or more repeat experiments
pEC50: −log10 of the molar value.

- compound: "CCCCCCNP(=O)(OCC1C=CC(n2cc(C)c(=O)[nH]c2=O)O1)Oc1ccccc1 (stereo not drawn)"
  pEC50: "< 4.30"
- compound: "CCCNP(=O)(OCC)OCC1C=CC(n2cc(C)c(=O)[nH]c2=O)O1 (stereo not drawn)"
  pEC50: "< 3.57"
- compound: "CCOP(=O)(N[C@@H](C)C(=O)OC)OC[C@@H]1C=C[C@H](n2cc(C)c(=O)[nH]c2=O)O1 (stereo partly drawn)"
  pEC50: "< 4.32"
